- System: MDA-MB-435
- procedure text: NCI tumour cell line growth inhibition, 48 h
property name: TGI

- mol: "C/C(=N\\Nc1nc2cc(Cl)ccc2s1)c1ccccn1"
  TGI: "> 42 µM"
- mol: "COc1ccc(/C=C/C(=O)c2c(O)ccc3c(C)c(C(=O)O)oc23)cc1"
  TGI: "> 100 µM"

Report its TGI with MDA-MB-435 as the test system: O=C1c2cc(I)ccc2N2CCN=C2N1Cc1ccccc1
> 100 µM

* * *

- Test system: SF-539 CNS
- procedure text: NCI tumour cell line growth inhibition, 48 h
property name: TGI

- compound: "C/C=C1/CN2CCC34c5ccccc5N(C)C23C2CC1C4(C(=O)OC)C(OC(C)=O)O2 (stereo not drawn)"
  target or system: "SF-539 CNS"
  TGI: "> 100 µM"
- compound: "Cc1c(C(=O)O)n2c(=S)[nH]nc2c2ccccc12"
  target or system: "SF-539 CNS"
  TGI: "> 100 µM"

Using the record for CC(C)(C)COC(=O)C(C)(C)NC(=O)C(CC(=O)OCc1ccccc1)NC(=O)OCc1ccccc1 (stereo not drawn) , state its measured TGI.
> 100 µM
